- ASSAY NAME: MM1S myeloma cell viability, profiling panel, resazurin fluorescence, basal, 24 h, PK04 Diversity Set (AID 1174);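 note: MM1S multiple myeloma cell line; test concentration not given here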
- RECORDED CONDITIONS: higher = more signal, called active from +8 up or from −8 down
I'd be grateful if you could share measured z-score for these entries.
// response body must contain only the number

stdin: z-score lookup needed for `CC(C)NC(=O)[C@@]1(c2ccc([N+](=O)[O-])cc2)CC(=O)N(C2CCCCC2)[C@@H]1c1ccc(CO)cc1I` , thanks.
stdout: 0.507

stdin: z-score lookup needed for NC(=O)N1C(=O)C2C(C1=O)C1C=C(c3ccc(CO)cc3)C2C(c2cccs2)N1Cc1cccc(OC(F)(F)F)c1 (centres undefined) , thanks.
stdout: -0.683

stdin: z-score lookup needed for `Cc1ccc(S[C@]2(C(=O)NC3CC3)CC(=O)N(Cc3ccccc3)[C@@H]2c2ccc(CO)cc2I)cc1` , thanks.
stdout: -2.45

stdin: z-score lookup needed for `CCCC[C@@H]1C[C@H]1[C@@H](NC(=O)c1ccco1)c1ccc(-c2ccccc2)cc1` , thanks.
stdout: -1.52

###

- ASSAY SYSTEM: Streptavidin (Streptomyces avidinii) (UniProt P22629)
- Sequence (P22629 whole entry, looked up): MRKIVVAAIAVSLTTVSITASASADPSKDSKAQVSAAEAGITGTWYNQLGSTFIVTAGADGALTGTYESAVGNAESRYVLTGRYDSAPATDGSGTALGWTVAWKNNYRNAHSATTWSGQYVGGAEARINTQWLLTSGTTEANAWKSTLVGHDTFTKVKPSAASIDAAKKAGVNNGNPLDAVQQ
- ASSAY NAME: streptavidin binders on small-molecule microarray, primary screen, artefact control for SMM compound annotation, biophysical, 635/667 nm fluorescence (AID 1147);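 note: signal reflects streptavidin binding to arrayed compounds as a control protein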
- RECORDED CONDITIONS: streptavidin binding, higher = more signal
QUANTITY: composite z-score
// response body must contain only the number

stdin: composite z-score lookup needed for CCCc1cc2c(n1Cc1cc(F)cc(F)c1)C(C)C1CN(C(=O)c3ccccc3)C(C)(C(=O)OC)C21 (centres undefined) , thanks.
stdout: 1.4

stdin: composite z-score lookup needed for `COC(=O)[C@@]1(Cc2ccc(OC)cc2)[C@H]2c3cc(C(=O)N4CCCC4)n(Cc4ccc(C)c(F)c4F)c3C[C@H]2CN1C(=O)c1ccccc1` , thanks.
stdout: 1.81

stdin: composite z-score lookup needed for `C=C(/C(=C/C[C@H](OC(C)=O)c1ccc(CO)o1)c1cc(C(=O)OC)ccc1OC)C(C)C` , thanks.
stdout: -0.489

stdin: composite z-score lookup needed for `CCOC(=O)C[C@H]1[C@H](OC(=O)c2cc3ccccc3oc2=O)[C@@H](NC(=O)c2ccccc2)c2cc(OCCCO)ccc2N1C(=O)c1ccc2ccccc2n1` , thanks.
stdout: 0.865

stdin: composite z-score lookup needed for `C[N+](C)(C)CCCCCCNC(=O)[C@@H]1C[C@@H]2C(=O)N[C@@H](Cc3ccccc3)C(=O)N2[C@@H]1c1cccc(OCCO)c1` , thanks.
stdout: 0.0123

stdin: composite z-score lookup needed for O=C1NC(=O)C2C1C=CC(C(O)c1cc(C(F)(F)F)cc(C(F)(F)F)c1)N2Nc1ccccn1 (centres undefined) , thanks.
stdout: 0.0086

stdin: composite z-score lookup needed for OCCCC1=CC(c2cccs2)N(Cc2cc3c(cc2Br)OCO3)CC1 (centres undefined) , thanks.
stdout: -0.0072

stdin: composite z-score lookup needed for COc1cc2c(cc1O)C(C1CC1)N(Cc1sc3ccccc3c1Cl)CC2 (centres undefined) , thanks.
stdout: 0.583

stdin: composite z-score lookup needed for CN1C(=O)C2C=CC(C(O)c3ccccc3)N(N(c3ccccc3)c3ccccc3)C2C1=O (centres undefined) , thanks.
stdout: 0.39

stdin: composite z-score lookup needed for `C=C[C@H](CO[Si](CC)(CC)CC)N(Cc1ccc(OC(C)=O)c(OC)c1)S(=O)(=O)c1ccc(Br)cc1` , thanks.
stdout: 1.61

stdin: composite z-score lookup needed for `CCOC(=O)C1=C[C@@H](C(C)(C)C)N(S(=O)(=O)c2ccc(C)cc2)[C@H]1c1ccc(F)cc1` , thanks.
stdout: 1.1

stdin: composite z-score lookup needed for `COc1cc2c(cc1OC)CN(C(=O)[C@@H]1[C@H]3C(=O)O[C@H](c4ccccc4)[C@H](c4ccccc4)N3[C@H](c3ccccc3OCCO)[C@@]13C(=O)Nc1ccc(C#CCCO)cc13)CC2` , thanks.
stdout: 0.442

stdin: composite z-score lookup needed for `O=C(c1ccccc1)N1C(=O)[C@]2(COC(c3ccc(OCCCO)cc3)=N2)Cc2ccccc21` , thanks.
stdout: 0.532

stdin: composite z-score lookup needed for CCCCN1CC=CC23O[C@@H]4C=CCCOC(=O)C4[C@H]2C(=O)N(CCCCCCO)[C@@H]3C1=O (some centres undefined) , thanks.
stdout: -0.564

stdin: composite z-score lookup needed for C=CCC(OC(C)=O)[C@@H]1[C@@H](N(Cc2ccc(-c3ccccc3)cc2)C(=O)Cc2ccc(OC)cc2)c2cc(OCCCO)ccc2N1C(=O)Cc1ccc2ccccc2c1 (some centres undefined) , thanks.
stdout: 0.192

stdin: composite z-score lookup needed for O[C@@H](Cc1ccccc1)[C@H]1C2C=CCCC=C2CN1Cc1cccc(Cl)c1 (some centres undefined) , thanks.
stdout: 0.513

stdin: composite z-score lookup needed for O=C(NCCN1CCOCC1)C1N=C(c2ccc(OCCCO)cc2)N(c2ccccc2)O1 (centres undefined) , thanks.
stdout: 0.284

stdin: composite z-score lookup needed for `COc1ccc(CCNC(=O)[C@@]2(Sc3ccc(C)cc3)CC(=O)N(C3Cc4ccccc4C3)[C@@H]2c2ccc(CO)cc2I)cc1` , thanks.
stdout: -0.814

stdin: composite z-score lookup needed for `CCOC(=O)C[C@H]1[C@H](OC(=O)c2ccc(C(=O)c3ccccc3)cc2)[C@@H](NC(=O)c2ccccc2)c2cc(OCCCO)ccc2N1C(=O)c1ccc2ccccc2n1` , thanks.
stdout: 1.22

stdin: composite z-score lookup needed for `O=C1C[C@]2(c3ccc([N+](=O)[O-])cc3)C(=O)N(CC(F)(F)F)c3cc(CO)ccc3[C@H]2N1C1CCCCC1` , thanks.
stdout: -0.463

stdin: composite z-score lookup needed for `O=C(N1CCCCC1)[C@]1(Cc2ccccc2)N=C(c2ccc(OCCCO)cc2)O[C@@H]1c1ccccc1` , thanks.
stdout: 0.997

stdin: composite z-score lookup needed for `COc1ccc(-c2cc3c(c(-c4ccc(Oc5ccccc5)cc4)n2)[Si](C(C)C)(C(C)C)OC3)cn1` , thanks.
stdout: 0.114

stdin: composite z-score lookup needed for `COCCOC(=O)N1C(=O)[C@@]2(c3cc(C#CCC(C(=O)OC)C(=O)OC)ccc31)[C@H](c1ccccc1OCCO)N1[C@H](c3ccccc3)[C@H](c3ccccc3)OC(=O)[C@H]1[C@@H]2C(=O)N1CCN(c2ncccn2)CC1` , thanks.
stdout: 0.635

stdin: composite z-score lookup needed for `NC(=O)NCC#Cc1ccc2c(c1)[C@]1(C(=O)N2)[C@H](c2ccc(O)cc2)N2[C@H](c3ccccc3)[C@H](c3ccccc3)OC(=O)[C@H]2[C@@H]1C(=O)O` , thanks.
stdout: -0.256

###

- ASSAY NAME: binders from COS7 lysate, DM2A8 probe, primary screen, torsin A project, cell lysate, small-molecule microarray, fluorescence 635/667 (AID 1065)
- RECORDED CONDITIONS: higher = more signal, COS7 lysate expressing mutant human TOR1A
Use -0.3 as the dividing line for composite z-score, with the line itself on the 1 side and lower values as 0.

stdin: Check the entry `COC(=O)[C@@]1(Cc2ccc(F)cc2)[C@H]2c3cc(C(=O)N4CCCC4)n(Cc4ccc(S(C)(=O)=O)cc4)c3C[C@H]2CN1C(=O)c1ccccc1` : does composite z-score equal or exceed -0.3?
stdout: 1

stdin: Check the entry `COC(=O)[C@@]1(Cc2ccc(OC)cc2)[C@H]2c3cc(C(=O)N4CCCC4)n(CCN4CNCC4=O)c3C[C@H]2CN1C(=O)c1ccccc1` : does composite z-score equal or exceed -0.3?
stdout: 1

stdin: Check the entry `COCCOC(=O)N1C(=O)[C@@]2(c3ccccc31)[C@H](c1ccc(O)cc1)N1[C@H](c3ccccc3)[C@H](c3ccccc3)OC(=O)[C@H]1[C@@H]2C(=O)Nc1nc2ccccc2s1` : does composite z-score equal or exceed -0.3?
stdout: 1

stdin: Check the entry `CCC[C@@H]1C[C@@]1(CCC)[C@@H](NS(=O)(=O)c1cccc2cccnc12)c1ccc(Cl)cc1` : does composite z-score equal or exceed -0.3?
stdout: 0

stdin: Check the entry [N-]=[N+]=Nc1ccccc1[C@H]1OC(c2ccc(OCCCO)cc2)=N[C@@]1(CCS(=O)(=O)c1ccccc1)C(=O)NCC(O)CO (stereo partly specified) : does composite z-score equal or exceed -0.3?
stdout: 1

###

I'd be grateful if you could share measured z-score for these entries.
- ASSAY SYSTEM: NADPH oxidase 2 (Homo sapiens)
- ASSAY NAME: NOX2-dependent H2O2 signal modulators, primary screen, NOX inhibitor project, cell-based, HEK293-NOX2, PMA-stimulated, Amplex Red fluorescence (AID 1159); note: test concentration not given here
- RECORDED CONDITIONS: 45 min, higher = more signal, called active from +8 up or from −8 down
// response body must contain only the number

stdin: z-score lookup needed for `C=C(CC1([C@@H](NP(=O)(c2ccccc2)c2ccccc2)[C@H]2C[C@@H]2CCCC)CC1)c1ccccc1` , thanks.
stdout: -0.538

stdin: z-score lookup needed for `COc1ccc(C#Cc2ccc3c(c2)[C@]2(C(=O)N3)[C@H](c3ccccc3OCCO)N3[C@H](c4ccccc4)[C@H](c4ccccc4)OC(=O)[C@H]3[C@@H]2C(=O)Nc2nc3ccccc3s2)cc1` , thanks.
stdout: -1.26

stdin: z-score lookup needed for `C=C(COC)/C(=C/C[C@@H](OC(C)=O)c1ccc(OCCO)cc1)c1cnc2ccccc2c1` , thanks.
stdout: -2.04

stdin: z-score lookup needed for `C=CCN1C(=O)[C@]2(O[C@H](CCn3cc([C@H](O)c4ccccc4)nn3)[C@@H]([Si](C)(C)c3ccc(OC)cc3)[C@@H]2C)c2cc(N3CCC3=O)ccc21` , thanks.
stdout: 0.632

stdin: z-score lookup needed for `COCCOC(=O)N1C(=O)[C@@]2(c3cc(C#Cc4ccc(OC)cc4)ccc31)[C@H](c1ccc(O)cc1)N1[C@H](c3ccccc3)[C@H](c3ccccc3)OC(=O)[C@H]1[C@@H]2C(=O)N1CCc2cc(OC)c(OC)cc2C1` , thanks.
stdout: 0.478

stdin: z-score lookup needed for `CCc1cccc(NC(=O)O[C@H]2[C@H](OC(=O)Nc3ccccc3-c3ccccc3)[C@@H](OC(=O)Nc3ccccc3-c3ccccc3)[C@@H](OC)O[C@@H]2CO)c1` , thanks.
stdout: -5.54

stdin: z-score lookup needed for CN1C(=O)C2C=CC(C(O)c3ccccc3)N(N(c3ccccc3)c3ccccc3)C2C1=O (configuration not stated) , thanks.
stdout: -1.19

stdin: z-score lookup needed for `C=CCNC(=O)[C@H]1[C@@H]2C(=O)O[C@@H](c3ccccc3)[C@@H](c3ccccc3)N2[C@@H](c2ccccc2OCCO)[C@]12C(=O)Nc1ccc(C#CCC(C(=O)OC)C(=O)OC)cc12` , thanks.
stdout: 1.62

stdin: z-score lookup needed for `CC(C)NC(=O)[C@@]1(C)c2ccccc2C(=O)N(Cc2cc(C(F)(F)F)cc(C(F)(F)F)c2)[C@H]1c1ccc(CO)cc1` , thanks.
stdout: -1.13

stdin: z-score lookup needed for `CCCCCCc1nc(-c2ccc(OC)nc2)cc2c1[Si](C(C)C)(C(C)C)O[C@H]2c1ccccc1` , thanks.
stdout: 0.0155

stdin: z-score lookup needed for `COC(=O)[C@@]1(Cc2ccc(F)cc2)[C@H]2c3cc(C(=O)N(C)C)n(Cc4ccc(Cl)c(C(F)(F)F)c4)c3C[C@H]2CN1C(=O)c1ccccc1` , thanks.
stdout: 0.23

stdin: z-score lookup needed for `O=C1[C@@]23C=C(Br)[C@H](C[C@@H]2CCOC3)[C@@]12CO2` , thanks.
stdout: -0.172

stdin: z-score lookup needed for `C=C(/C(=C/C[C@H](OC(C)=O)c1ccccc1OCCO)c1cnc2ccccc2c1)C(C)C` , thanks.
stdout: -0.353

stdin: z-score lookup needed for `COC(=O)[C@]1(CCC(=O)OC(C)(C)C)N=C(c2ccc(OCCCO)cc2)O[C@@H]1c1ccccc1CN=[N+]=[N-]` , thanks.
stdout: -3.48

stdin: z-score lookup needed for `COC(=O)[C@@]1(Cc2ccc(OC)cc2)[C@H]2c3cc(C(=O)N(C)C)n(CCc4ccccn4)c3C[C@H]2CN1C(=O)c1ccccc1` , thanks.
stdout: 0.63

stdin: z-score lookup needed for `COc1ccc(CCNC(=O)[C@@]2(Sc3ccc(C)cc3)CC(=O)N(C(C)C)[C@@H]2c2ccc(CO)cc2I)cc1` , thanks.
stdout: 0.446

stdin: z-score lookup needed for `O=C1O[C@@H](c2ccccc2)[C@@H](c2ccccc2)N2[C@@H](c3ccccc3OCCO)[C@]3(C(=O)Nc4ccccc43)[C@@H](C(=O)Nc3nc4ccccc4s3)[C@H]12` , thanks.
stdout: 0.188

stdin: z-score lookup needed for `COCCOC(=O)N1C(=O)[C@@]2(c3ccccc31)[C@H](c1ccc(O)cc1)N1[C@H](c3ccccc3)[C@H](c3ccccc3)OC(=O)[C@H]1[C@@H]2C(=O)Nc1nc2ccccc2s1` , thanks.
stdout: 1.41

stdin: z-score lookup needed for `CC#CC(=O)Oc1ccccc1C=CC(=O)OCC` , thanks.
stdout: -0.405

stdin: z-score lookup needed for `C=CCOC(=O)[C@H]1[C@@H]2C(=O)O[C@@H](c3ccccc3)[C@@H](c3ccccc3)N2[C@@H](c2ccc(OCCOC(=O)[C@@H]3C[C@@H]4C(=O)N[C@@H](CC(C)C)C(=O)N4[C@@H]3c3ccc(O)cc3)cc2)[C@]12C(=O)Nc1ccccc12` , thanks.
stdout: 1.63

stdin: z-score lookup needed for `CCCC[C@@H]1C[C@H]1[C@@H](NC(=O)c1ccccc1)c1ccc(C(=O)OC)cc1` , thanks.
stdout: -1.14

stdin: z-score lookup needed for `COc1cccc(-c2cccc(=O)o2)c1` , thanks.
stdout: 0.705
